B1: Unconventional myosin-Ie, residues 1051 to 1108; numbered along this chain, Q12965 (parent)
chain: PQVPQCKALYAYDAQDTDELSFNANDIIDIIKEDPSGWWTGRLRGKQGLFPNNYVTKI

Variants of: B1
Assay: abundance fitness (aPCA) (normalised: wild type 0, dead -1); higher = more abundant; growth selection in yeast, the domain comes from the species named
Settings: Homo sapiens
// label = TRUE if abundance fitness is not less than -0.1, otherwise FALSE

Known results for variants:
mutation-id | label-class
G45T | FALSE
D34Q | FALSE
F22P | FALSE
R42Q | TRUE
I30R | FALSE
T40G | FALSE

INPUT: # check: abundance fitness of Y54Q is greater than or equal to -0.1
OUTPUT: FALSE

INPUT: Entry E19K please
OUTPUT: FALSE

INPUT: Entry G41D please
OUTPUT: FALSE

INPUT: Entry T56G please
OUTPUT: FALSE
